B1: HEEH_KT_rd6_0007 (parent)
chain: SIEEEIKKAEEAKEKGKTFIHGDFVATTEELLDELLKRLRKKL

Variants of: B1
experimentSummary: folding stability dG (cDNA display proteolysis); higher = more stable
assaySetup: PBS, room temperature
Please note: fulfilled applies when folding stability dG is 1 kcal/mol or greater, and not fulfilled applies otherwise.

query: Given A26C , state whether its folding stability dG is at least 1 kcal/mol.
result: fulfilled

query: Given F19M , state whether its folding stability dG is at least 1 kcal/mol.
result: not fulfilled

query: Given H21M , state whether its folding stability dG is at least 1 kcal/mol.
result: fulfilled

query: Given K41A , state whether its folding stability dG is at least 1 kcal/mol.
result: fulfilled

query: Given E14F , state whether its folding stability dG is at least 1 kcal/mol.
result: fulfilled

query: Given T18Y , state whether its folding stability dG is at least 1 kcal/mol.
result: fulfilled

query: Given A9V , state whether its folding stability dG is at least 1 kcal/mol.
result: fulfilled

query: Given G22M , state whether its folding stability dG is at least 1 kcal/mol.
result: fulfilled

query: Given E5W , state whether its folding stability dG is at least 1 kcal/mol.
result: fulfilled

query: Given E29N , state whether its folding stability dG is at least 1 kcal/mol.
result: fulfilled

query: Given K42T , state whether its folding stability dG is at least 1 kcal/mol.
result: fulfilled

query: Given E5D , state whether its folding stability dG is at least 1 kcal/mol.
result: fulfilled

query: Given E29A , state whether its folding stability dG is at least 1 kcal/mol.
result: fulfilled

query: Given L43H , state whether its folding stability dG is at least 1 kcal/mol.
result: not fulfilled

query: Given K13Q , state whether its folding stability dG is at least 1 kcal/mol.
result: not fulfilled

query: Given A9L , state whether its folding stability dG is at least 1 kcal/mol.
result: fulfilled

query: Given L39N , state whether its folding stability dG is at least 1 kcal/mol.
result: not fulfilled

query: Given A26K , state whether its folding stability dG is at least 1 kcal/mol.
result: not fulfilled

query: Given E30Q , state whether its folding stability dG is at least 1 kcal/mol.
result: fulfilled

query: Given E14S , state whether its folding stability dG is at least 1 kcal/mol.
result: fulfilled

query: Given A9D , state whether its folding stability dG is at least 1 kcal/mol.
result: not fulfilled

query: Given A9P , state whether its folding stability dG is at least 1 kcal/mol.
result: not fulfilled

query: Given E10L , state whether its folding stability dG is at least 1 kcal/mol.
result: fulfilled

query: Given V25Y , state whether its folding stability dG is at least 1 kcal/mol.
result: fulfilled

query: Given R38L , state whether its folding stability dG is at least 1 kcal/mol.
result: fulfilled

query: Given F24C , state whether its folding stability dG is at least 1 kcal/mol.
result: fulfilled

query: Given E3A , state whether its folding stability dG is at least 1 kcal/mol.
result: fulfilled

query: Given L31E , state whether its folding stability dG is at least 1 kcal/mol.
result: fulfilled

query: Given L36W , state whether its folding stability dG is at least 1 kcal/mol.
result: not fulfilled

query: Given K17A , state whether its folding stability dG is at least 1 kcal/mol.
result: fulfilled

query: Given K37W , state whether its folding stability dG is at least 1 kcal/mol.
result: not fulfilled

query: Given H21R , state whether its folding stability dG is at least 1 kcal/mol.
result: not fulfilled

query: Given V25K , state whether its folding stability dG is at least 1 kcal/mol.
result: not fulfilled

query: Given A26H , state whether its folding stability dG is at least 1 kcal/mol.
result: not fulfilled

query: Given K8E , state whether its folding stability dG is at least 1 kcal/mol.
result: not fulfilled

query: Given E29D , state whether its folding stability dG is at least 1 kcal/mol.
result: fulfilled

query: Given F24E , state whether its folding stability dG is at least 1 kcal/mol.
result: not fulfilled

query: Given A9E , state whether its folding stability dG is at least 1 kcal/mol.
result: not fulfilled

query: Given V25D , state whether its folding stability dG is at least 1 kcal/mol.
result: not fulfilled

query: Given L35N , state whether its folding stability dG is at least 1 kcal/mol.
result: not fulfilled

query: Given R38I , state whether its folding stability dG is at least 1 kcal/mol.
result: fulfilled

query: Given T27R , state whether its folding stability dG is at least 1 kcal/mol.
result: not fulfilled

Data provenance is the MegaScale stability set (Tsuboyama et al. 2023).
